Values from paper PMC12040169

- System: HeLa
- Measurement parameters: bulk resorufin, single well, 28.5 h, 10 µM, Bulk resorufin fluorescence
Reported metric: % viability (%)
Numeric answer only, unit % assumed.

-- ask Respond only with % viability recorded for "CC(C)[C@@H](Cn1c(=O)oc2ccccc21)NC(=O)c1ccco1"
-- reply 86.1

-- ask Respond only with % viability recorded for "CC(=O)Nc1ccc(S(=O)(=O)Nc2c(C(=O)N3CCN(C)CC3)[nH]c3ccccc23)cc1"
-- reply 93.9

-- ask Respond only with % viability recorded for "C/C(=N\O)c1cc2cc(Cl)cc(Cl)c2oc1=O"
-- reply 90.6

-- ask Respond only with % viability recorded for O=C(Nc1ccccc1OC1CCNCC1)C1CCC1 [CBK045901T]
-- reply 97.8

-- ask Respond only with % viability recorded for O=C(CC1C(=O)NC(=O)N1Cc1ccccc1)NCc1ccccc1 (centres unmarked)
-- reply 94.6

-- ask Respond only with % viability recorded for Cc1c(C(=O)O)sc2nc(SCC(=O)NCc3ccccc3)[nH]c(=O)c12 [CBK301214K]
-- reply 107

-- ask Respond only with % viability recorded for "CC1(C)CC(NC(=O)/C=C/C(=O)O)CC(C)(C)N1"
-- reply 90.9

-- ask Respond only with % viability recorded for CC(C)n1cc(CN2CC3C[C@@H](O)CN3C[C@H]2C)c2ccccc21 (some centres unmarked)
-- reply 88.8

-- ask Respond only with % viability recorded for "COc1ccc(/C=C/C(=O)O)cc1S(=O)(=O)N1CCOCC1"
-- reply 84.7

-- ask Respond only with % viability recorded for C[C@@H]1CN2CCCC2CN1Cc1ccsc1 (some centres unmarked)
-- reply 109

-- ask Respond only with % viability recorded for CC1CCCN(Cc2c([C@H]3CCCO3)[nH]c3ncccc23)C1 (some centres unmarked)
-- reply 106

-- ask Respond only with % viability recorded for "O=C(O)c1c(NS(=O)(=O)c2ccc(Oc3ccccc3)cc2)sc2c1CCCC2"
-- reply 106

-- ask Respond only with % viability recorded for "CCOC(=O)c1sc2nccc(Nc3ccccc3)c2c1N"
-- reply 91.8

-- ask Respond only with % viability recorded for O=C(O)C(Cc1ccc(O)cc1)N1C(=O)c2ccccc2C1=O (centres unmarked)
-- reply 80.4

-- ask Respond only with % viability recorded for CNC1=NC2CCCCC2O1 (centres unmarked) [CBK023075F]
-- reply 111

-- ask Respond only with % viability recorded for "COc1ccccc1N1C(=O)CC(=O)N=C1S"
-- reply 89.3

-- ask Respond only with % viability recorded for "Cc1csc(NC(=O)c2ccc(S(=O)(=O)N3CCCCC3)cc2)n1"
-- reply 103

-- ask Respond only with % viability recorded for "O=C(O)CCNc1c(C(=O)O)cnc2ccccc12"
-- reply 89

-- ask Respond only with % viability recorded for "COc1cc(F)ccc1-c1nc(NS(C)(=O)=O)cc2ccccc12"
-- reply 105

-- ask Respond only with % viability recorded for C[C@H]1CN2C[C@H](O)CC2CN1Cc1cc(Br)cs1 (some centres unmarked)
-- reply 94

----------
- Experiment summary: in vitro
- Measurement parameters: human, hela cells, % viability
Reported metric: viability at 28.5 h, 10 µM (%)
Numeric answer only, unit % assumed.

-- ask Respond only with viability at 28.5 h, 10 µM recorded for O=C(Nc1ccc2ccccc2c1)N1CCN(C(=O)C2CCCO2)CC1 (stereo not drawn)
-- reply 96.6

-- ask Respond only with viability at 28.5 h, 10 µM recorded for "CC(C)(C)NC(=O)Cn1c(=O)n(Cc2cccs2)c2ncccc21"
-- reply 104

-- ask Respond only with viability at 28.5 h, 10 µM recorded for "O=C(NCCN1CCOCC1)NCC12CC3CC(C1)CC(c1ccccc1)(C3)C2"
-- reply 89.1

-- ask Respond only with viability at 28.5 h, 10 µM recorded for "CCCc1nnc(SCC(=O)Nc2cccc(C(F)(F)F)c2)n1N"
-- reply 104

-- ask Respond only with viability at 28.5 h, 10 µM recorded for O=C(C1CC2C=CC1C21CC1)N1CCC(Oc2ccccc2F)CC1 (stereo not drawn)
-- reply 103

-- ask Respond only with viability at 28.5 h, 10 µM recorded for "O=C(Nc1cc(N2CCCS2(=O)=O)ccc1Cl)c1cc[nH]n1"
-- reply 83.1

-- ask Respond only with viability at 28.5 h, 10 µM recorded for "Cc1cc(OCc2nc(-c3ccc(NC(=O)c4ccc5c(c4)OCO5)cc3)no2)ccc1Cl"
-- reply 95.7

-- ask Respond only with viability at 28.5 h, 10 µM recorded for "S=c1[nH]nc(-c2sc3ccccc3c2Cl)[nH]1"
-- reply 96.3

-- ask Respond only with viability at 28.5 h, 10 µM recorded for "O=C(CN1CCCN(c2nccs2)CC1)Nc1cc(Cl)ccc1Cl"
-- reply 99.7

-- ask Respond only with viability at 28.5 h, 10 µM recorded for "CC(=O)Nc1ccc(NCc2cc(Cl)ccc2OCc2ccc(Cl)cc2Cl)cc1"
-- reply 90.8

-- ask Respond only with viability at 28.5 h, 10 µM recorded for O=C(O)C1CCCCC1C(=O)N1CCN(Cc2cccc3ccccc23)CC1 (stereo not drawn)
-- reply 91.2

-- ask Respond only with viability at 28.5 h, 10 µM recorded for "O=C1Nc2ccc(-c3ccc4c(c3)OCO4)cc2C(=O)N2CCN(C(=O)CO)C[C@H]12"
-- reply 85.6

-- ask Respond only with viability at 28.5 h, 10 µM recorded for "Cc1ccc(OCC(=O)NC(=S)Nc2cccc(-c3nc4ncccc4o3)c2C)cc1"
-- reply 109

-- ask Respond only with viability at 28.5 h, 10 µM recorded for Cc1ccccc1OC(C)C(=O)Nc1ccccc1C(=O)N1CCOCC1 (stereo not drawn)
-- reply 103

-- ask Respond only with viability at 28.5 h, 10 µM recorded for COc1cccc(CNCCN2CCOCC2)c1O [CBK278183C]
-- reply 90.2

-- ask Respond only with viability at 28.5 h, 10 µM recorded for "COc1cc(NC(=O)N(CCC#N)C2CCCCC2)cc(OC)c1OC"
-- reply 94.4

-- ask Respond only with viability at 28.5 h, 10 µM recorded for COc1cccc(/C=C/C2=NN(c3cccc(F)c3)C(c3cccc(OC)c3OC)C2)c1OC (stereo not drawn)
-- reply 104

-- ask Respond only with viability at 28.5 h, 10 µM recorded for O=C(NCCNCc1ccco1)c1ccc(F)cc1 [CBK266873G]
-- reply 103

-- ask Respond only with viability at 28.5 h, 10 µM recorded for "O=C(NC1CCCCC1)[C@@H]1C=CCN1C(=O)c1cccs1"
-- reply 95.8

-- ask Respond only with viability at 28.5 h, 10 µM recorded for c1ccc(-c2nnc(C3CCNCC3)[nH]2)nc1 [CBK288629G]
-- reply 97

-- ask Respond only with viability at 28.5 h, 10 µM recorded for "c1ccc2nc(N3CCCC3)c(Sc3nc[nH]n3)nc2c1"
-- reply 90.9

-- ask Respond only with viability at 28.5 h, 10 µM recorded for O=C(CN1CCN(C(=O)C2COc3ccccc3O2)CC1)Nc1ccc2c(c1)OCCO2 (stereo not drawn)
-- reply 111

-- ask Respond only with viability at 28.5 h, 10 µM recorded for "CCn1c2ccccc2c2cc(NC(=O)CN(C)S(=O)(=O)c3ccc(C)cc3)ccc21"
-- reply 92.8

-- ask Respond only with viability at 28.5 h, 10 µM recorded for CC(=O)N/C(=C\c1ccccc1)C(=O)NC(C)C(=O)O (stereo not drawn)
-- reply 99.1

-- ask Respond only with viability at 28.5 h, 10 µM recorded for "Cn1c(=O)n(CC(=O)NCc2ccc(F)cc2)c2cccnc21"
-- reply 86.6

-- ask Respond only with viability at 28.5 h, 10 µM recorded for CC1(C(F)(F)F)OC(NC2C3CC4CC(C3)CC2C4)=NC1=O (stereo not drawn)
-- reply 114

-- ask Respond only with viability at 28.5 h, 10 µM recorded for "c1csc(-c2nn3c(Cn4nnc5ccccc54)nnc3s2)c1"
-- reply 87.7

-- ask Respond only with viability at 28.5 h, 10 µM recorded for "Cc1cc2c(s1)c1cnn(CC(=O)OC(C)C)c(=O)c1n2C"
-- reply 102

-- ask Respond only with viability at 28.5 h, 10 µM recorded for "Cc1c(Cl)cc(C(C)C)c(O)c1CNC(=O)CSc1nnc(-c2cccs2)n1C"
-- reply 94.6

-- ask Respond only with viability at 28.5 h, 10 µM recorded for "Cc1ccc(C(=O)c2coc3ccc(OCC(=O)O)cc23)cc1"
-- reply 86.6

-- ask Respond only with viability at 28.5 h, 10 µM recorded for "COc1cc(CNn2cnnc2S)ccc1OCC(=O)NC(C)(C)C"
-- reply 92.5

-- ask Respond only with viability at 28.5 h, 10 µM recorded for CC1CCN(CCOCC(O)CNS(=O)(=O)O)CC1 (stereo not drawn) [CBK261454N]
-- reply 124

-- ask Respond only with viability at 28.5 h, 10 µM recorded for "C[C@@H](Cn1c(=O)oc2ccccc21)NC(=O)Cc1cccs1"
-- reply 92.9

-- ask Respond only with viability at 28.5 h, 10 µM recorded for "CCOC(=O)c1cn(CC)c2cc(F)c(OCC)cc2c1=O"
-- reply 87.8

-- ask Respond only with viability at 28.5 h, 10 µM recorded for CC1CCN(Cc2ccc(-c3nnn(CC(=O)NCc4ccc(NS(C)(=O)=O)cc4)n3)cc2)CC1 [CBK144588C]
-- reply 90.3

-- ask Respond only with viability at 28.5 h, 10 µM recorded for "O=C(COc1ccc([N+](=O)[O-])cc1)Nc1cccc2nsnc12"
-- reply 94.8

-- ask Respond only with viability at 28.5 h, 10 µM recorded for "CC(=O)Nc1nnc(SCCc2ccccc2)[nH]1"
-- reply 95.6

-- ask Respond only with viability at 28.5 h, 10 µM recorded for CC(C)Nc1nc2ccccc2nc1OC1CCN(C)C1 (stereo not drawn)
-- reply 81.1

-- ask Respond only with viability at 28.5 h, 10 µM recorded for "CN(C)C(=O)CN1C(=O)N2CCN=C2c2ccccc21"
-- reply 94.7
